assay: soluble on expression in E. coli; label from the status in PepcDB or PDB records

{"Polymer sequence": "MMYQDVVRSRRSVRDFMPDVEIPKEELMAIIEEAMFAPNSTNLNSWRFLIVTEKEQKEALYEVSMQQPAVKGAAAVIILLGDLTAYTVANADEISAKAVAQGTMTEEIRQGINENVSWYYDVSEEQKREWLMLDQGLVAMQLMLSAKDRGYDTVAMSGFETEAVRKLFNIEDHLVNGLIIPIGKAQTPGFETVRRDVSEVVTWLD", "soluble on expression in E. coli": "not soluble"}
{"Polymer sequence": "MGSDKIHHHHHHMASFVDKLHPLVLNIGLAIHNADWNWKNVNSPFTRLYYVTEGTAQVLISGKTQILKANHMYFIPAFTKHSYICNSYFSHYYLHIYEEHQSDSNLLDNWDFPIEIPAVEIDLALFQRLCTINPHMTLQKSDPTSYDNNYTLMQNLLKNKQRTLSDKIESRGIVYQLLARFLKRAQVKMELKDNRIEEAIHYIRKHINETIDLRVLAENSCLSKDHFIRLFKKETGDTPLKYINRKKIEKAQLILITDDMSIKNVALNLAFEDYSYFNRLFKKITGITPQEYRTSYHS", "soluble on expression in E. coli": "not soluble"}

* * *

experiment: soluble on expression in E. coli; label from the status in PepcDB or PDB records
Measure: soluble on expression in E. coli

{"Polymer sequence": "MGSDKIHHHHHHMEFSPPLQRATLIQRYKRFLADVITPDGRELTLHCPNTGAMTGCATPGDTVWYSTSDNTKRKYPHTWELTQSQSGAFICVNTLWANRLTKEAILNESISELSGYSSLKSEVKYGSERSRIDFMLQADSRPDCYIEVKSVTLAENEQGYFPDAVTERGQKHLRELMSVAAEGQRAVIFFAVLHSAITRFSPARHIDEKYAQLLSEAQQRGVEILAYKAEISAEGMALKKSLPVTL", "Measure": "soluble on expression in E. coli", "Result": "not soluble"}
{"Polymer sequence": "RETFKVLLQGVPDGIDLEGLKTDILSLPHIRSVHDIHLWTLDGESHVMTIHVVYCPDDFSSPQAVFDMKESVREKCSAHGIRHATIELDPEGCSCGMESC", "Measure": "soluble on expression in E. coli", "Result": "not soluble"}
{"Polymer sequence": "MSGAEQKVAYSLVSSGSLMSVNPGMARWIKELFCHNERVVLTGDWKHGFLSLTAVGATNVGSIRIHFN", "Measure": "soluble on expression in E. coli", "Result": "not soluble"}

* * *

assay: soluble on expression in E. coli; label from the status in PepcDB or PDB records
Measure: soluble on expression in E. coli

{"Polymer sequence": "MAHHHHHHMINSVYHSKKACVEALRAVERLQPSWWTPPCSEFLHRVEQTPTVTAQPNQKTLIVLEGIDGVGKSLVAQSLIEKLGDSAVLIRTPHPDLSGIRETFRAQTEETARAFYSAANYLAAWDAFHATKERKFVVFDRWWCSTCAMALANSCRLAALPAAGDAVYQWPQDLPPFQLGALLYVEEHIRQARIRQRAPEDAEERRLRAQQEMREVAMEAYRRFGLLNEVHVATYGVAVNRILALMTEKGLPHSATPFSAEELAALRQI", "Result": "soluble"}
{"Polymer sequence": "MSLDIMITHKKIYSSLLNTKSRLNFKDTVQSGQSFRWNLNETLKSYYSSVIYNSIIFICEINSEMIEVLCTDQELSGKPINEFLKHLFSLDFQEETVFSSRFQQEFPEVWNLVQSYRSVRVMRQDPFEIMVTFMCAQGIGMHLIRRQVSMIAERYGQKIMLELPEGNLTFHSFPPPQALASADPNELAVCTNNNRIRAANIIAMARSFESGKLALACVDSGKCDLETLRETLCVHSGIGLKIADCIALFGLGRFDAFPIDTHVKQYLWEWFGIEEARHSLTEKNYRILQEKARAILGAEYAGYAGHILFHCWRKEVKKMKAEGHHHHHH", "Result": "soluble"}
{"Polymer sequence": "GPGSMAVNILKAGFPVSVWNRTASKCDDLVAAGATACATPAELAAASDVVFTNLSDSPDVMEVVFGPNGVAAGICEGAIFVDNSTIKPSVAQEIARRLWKEKKVRALDAPVSGGDIGARNGTLTVMVGGDAAALATVLPVLLAVGKKVTHIGDCGAGQVCKAANQIMVAAQMVALGEILVFCEKCGVSGPTVIEAIKSGSAQCWTLDVKPDRLFAGNRAPGFKAALQSKDMGIVMDTAKEFGVPLPSTAVNTQLFQAMVQNGDGDRDNSAVVSVLERMANVHISEAERE", "Result": "not soluble"}
{"Polymer sequence": "MSDPRPARAVVVGIDGSRAATHAALWAVDEAVNRDIPLRLVYVIDPSQLSAAGEGGGQSAARAALHDASRKVEATGQPVKIETEVLCGRPLTKLMQESRSAAMLCVGSVGLDHVRGRRGSVAATLAGSALCPVAVIHPSPAEPATTSQVSAVVAEVDNGVVLRHAFEEARLRGVPLRAVAVHAAETPDDVEQGSRLAHVHLSRRLAHWTRLYPEVRVDRAIAGGSACRHLAANAKPGQLFVADSHSAHELCGAYQPGCAVLTVRSANL", "Result": "not soluble"}
{"Polymer sequence": "MSLNRNDKRGARRNILAHYDLGNALFERLLDPTMMYSAAQFEHPGQTLEQAQLHKLERICQKLELSPDDHLLEIGSGWGSLAIHAATRYGCRVTTTTLSEAQYSHTLERVKALGLGQRVQVLREDYRDLQGTFDKLVSIEMIEAVGHRYLPVYFRQCASLLKPEGLMLLQAITIRDQRYAQAQRSVDFIQRYIFPGGALPSLSVLLDTASRHTGLNLVHMEDFGLDYAHTLRHWRENLRQARTALTDLGYDDMFQRLWEFYLCYCQGGFEERAIGVAHLLWAAEGHHHHHH", "Result": "soluble"}
{"Polymer sequence": "MSLYSKDGENYFIVDAHVALWDARRENQRNIHGKQFIDCFYDYHRNLSPASELWPYEDFLYQGGERLMKDLFTDGYVDHAIFQPAHLGAFYNTGFGQTEEAFALTRKHPGMLTYNHCFDPRFEEAGLKQLREDAARFGLKGVKLYTAEWKGDSRGYKLSDPWTYRYLDACRELGIKNIHVHKGPTIRPLDRDAFDVADVDAAASDFTDLNFVVEHCGLPRLEDFCWIATQEPNVHAGLAVAIPFMHTRPRYFAQIIGELLYWLDEDRIQFSSDYALWTPRWIVEQFVDFRIPDDMTGEYPQLTVAQKKKILGLNAAAMYDIEVPAEGHHHHHH", "Result": "soluble"}
{"Polymer sequence": "MSEKETPSPVLDVKKEKNEETGIDEEKSSEDDCSKRSKVKSNPSKFSVNSILSPLESLVRVQQQLLKMAASKSGTPGTNAGVPGAFPYGPGRLPGNYFAGPFPGYSGAQPNWYNGNDPRFAAAAALLPCSIDPVRSAINHQFSMSSMSQRRKRRVLFSQAQVYELERRFKQAKYLTAPEREQLANSIRLTPTQVKIWFQNHRYKCKRQEKEKAMSGLGHSEDGSSPPPDNDDDDDKYSIEMDDKDDEEEEESEKPVLKPSGVFGLPYPPNAAAAAAAAAAAFNFPFAAQGPNPAYYMRW", "Result": "not soluble"}
{"Polymer sequence": "MEHICGTSRIAGFRFSLYPMTDDFISVIKSALKKTDTSKVWTKTDHISTVLRGSIDHVFDAAKAIYLHAANSEQHIVMNGTFSIGCPGDTQGDTYLSKGDKRVNEDAVRGLKAEAPCQFALYPMNEPDYMGLIMEAVDIAKAQGTFVQGVHYASELDGDAHDVFSTLEAVFRMAEQQTNHITMTVNLSANSPSRKNRKQG", "Result": "soluble"}
{"Polymer sequence": "MPAENSVEVHRLRKSVGQGEHELSILTGVELVVKRGETIALIGESGSGKSTLLAILAGLDDGSSGEVSLVGKPLHQMDEEARAQLRAQHVGFVFQSFMLIPTLNALENVELPALLRGENSGQSKAGAKALLEQLGLGKRLDHLPAQLSGGEQQRVALARAFNGRPDVLFADEPTGNLDRQTGDKIADLLFSLNREHGTTLILVTHDPALAARCDRRLRLVNGQLQEEA", "Result": "not soluble"}
{"Polymer sequence": "MGTKREKDSLAFLLNSGARLLNNAFERRISEAGLGLTPGEARALLTVAVVDGSKQSDIAARLGIEPMTICAYLDKLQSLDLIERQQDPQDRRSKRIVLTKNSTDMLEAVRQEIDELVRHATRGLNEDEVALFRSFLQTLRDNLQPEQPGQSC", "Result": "soluble"}
{"Polymer sequence": "MGLKDQAVTWRRYFHQFPELSDKEFKTTQKIKDILTEHHIRILDLPLATGLVAEVGQGLSCIAVRADIDALPIQELVEQDFKSENEGVMHACGHDIHMASILATAVKLKEIEGTLTGRVKFIFQSAEELGHGAFKIIETHALKDVQAVLGFHNDPSRSVGTFAIKTGAITSAVDRFEFHIKGVGGHAAKPEQCNDPVIVLAQLINSIQSIVSRNLSAFDEAVVTIGQISCGNTWNVIADHAYVQGTVRSFDPVVRKLVETRLQDIADGLAQAYNMKINLNYTHLPGAVMNDEALTHKAIAVAQHVGYKVEMMEQPLTIGEDFSGYSQHFPSVFALIGSHSEYDLHHPQYKPDERILEKVPEYFVEFVKRLLHE", "Result": "not soluble"}

Reference for the values: the DeepSol protein solubility set
